These measurements were taken from paper PMC8553955.

system: Phelipanche ramosa seeds; test: Inhibition of P. ramosa germination stimulation induced by GR24 or 2-PEITC; assay type: in vivo; conditions: GR24 (10 nM)
Value Kind: pIC50
One number for each entry, as −log10 of the molar value.

Any idea what pIC50 was measured for CC1=CC(=O)CC(C)(C)[C@@]1(O)/C=C/C(C)=C\C(=O)O [ABA, abscisic acid] ?
7.00
